Biological target: His6-ERα298-554 Y537S mutant (ERα ligand-binding domain) (Homo sapiens (Human), UniProt P03372, Y537S)
Sequence (P03372 298-554 Y537S): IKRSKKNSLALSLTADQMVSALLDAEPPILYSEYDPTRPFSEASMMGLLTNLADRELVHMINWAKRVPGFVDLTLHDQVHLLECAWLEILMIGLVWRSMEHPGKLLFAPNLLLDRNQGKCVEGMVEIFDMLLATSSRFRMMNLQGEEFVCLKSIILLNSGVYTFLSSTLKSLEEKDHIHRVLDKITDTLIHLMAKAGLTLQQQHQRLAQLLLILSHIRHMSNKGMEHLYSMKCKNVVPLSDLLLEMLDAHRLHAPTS
Assay: Test A: biochemical antagonist activity, LanthaScreen TR-FRET ERα coactivator assay, Y537S mutant
Conditions: protocol with 3 nM estradiol; read-out: Antagonism Y537S IC50
// reported IC50 for each item listed
Give the value, in units of nM, as a plain number.

Example entries begin here.
| molecular-string | experimental-value |
| --- | --- |
| Cc1ccc(C2=C(c3ccc(O[C@H]4CCN(CCCF)C4)cc3)c3ccc(O)cc3SC2)c(F)c1 | 6 |
| Cc1ccc(C2=C(c3ccc(O[C@H]4CCN(CCCF)C4)cc3)c3ccc(O)c(F)c3OCC2)c(F)c1 | 16 |
| CC(C)Oc1ccc(C2=C(c3ccc(O[C@H]4CCN(CCCF)C4)cc3)c3ccc(O)cc3OCC2)cc1F | 1120 |
| Cc1cc(F)ccc1C1=C(c2ccc(O[C@H]3CCN(CCCF)C3)cc2)c2ccc(O)cc2OCC1 | 25 |
| Oc1ccc2c(c1)OCCC(c1ccc3c(c1)CCN3)=C2c1ccc(O[C@H]2CCN(CCCF)C2)cc1 | 23 |
| Oc1ccc2c(c1F)OCCC(c1ccc3[nH]ccc3c1)=C2c1ccc(O[C@H]2CCN(CCCF)C2)cc1 | 19 |

GET /value?item= `O=S1(=O)CCC(c2cccc(O)c2)=C(c2ccc(O[C@H]3CCN(CCCF)C3)cc2)c2ccc(O)cc21` &field=IC50 returns 38
